- Measurement target: Cannabinoid receptor 1 (Homo sapiens, UniProt P21554)
- Sequence (P21554 whole entry): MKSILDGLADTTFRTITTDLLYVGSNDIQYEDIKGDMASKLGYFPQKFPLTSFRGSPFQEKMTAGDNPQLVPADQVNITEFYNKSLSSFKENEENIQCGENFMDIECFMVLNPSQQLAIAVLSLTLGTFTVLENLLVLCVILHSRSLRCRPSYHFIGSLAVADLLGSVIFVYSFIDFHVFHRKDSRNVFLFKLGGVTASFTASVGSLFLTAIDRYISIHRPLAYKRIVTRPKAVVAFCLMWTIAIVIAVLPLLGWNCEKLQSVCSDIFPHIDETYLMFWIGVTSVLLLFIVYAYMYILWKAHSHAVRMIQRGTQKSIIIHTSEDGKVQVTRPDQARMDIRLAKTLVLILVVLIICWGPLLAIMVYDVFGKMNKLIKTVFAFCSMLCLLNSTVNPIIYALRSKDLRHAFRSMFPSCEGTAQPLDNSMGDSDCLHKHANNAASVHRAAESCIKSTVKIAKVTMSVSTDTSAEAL
- Experiment description: Displacement of [3H]SR-141716A from human CB1 receptor at 10 uM
Parameter: Activity. Scope: all listed entries.
State the answer as a number, implicitly in %.

Ask | I am curious: what Activity value has been reported for CCCCCn1cc(C(=O)NCc2ccccc2)c(=O)c2ccccc21 ?
Reply | 50.5

* * *

- Measurement target: Cannabinoid receptor 2 (Homo sapiens, UniProt P34972)
- Sequence (P34972 whole entry): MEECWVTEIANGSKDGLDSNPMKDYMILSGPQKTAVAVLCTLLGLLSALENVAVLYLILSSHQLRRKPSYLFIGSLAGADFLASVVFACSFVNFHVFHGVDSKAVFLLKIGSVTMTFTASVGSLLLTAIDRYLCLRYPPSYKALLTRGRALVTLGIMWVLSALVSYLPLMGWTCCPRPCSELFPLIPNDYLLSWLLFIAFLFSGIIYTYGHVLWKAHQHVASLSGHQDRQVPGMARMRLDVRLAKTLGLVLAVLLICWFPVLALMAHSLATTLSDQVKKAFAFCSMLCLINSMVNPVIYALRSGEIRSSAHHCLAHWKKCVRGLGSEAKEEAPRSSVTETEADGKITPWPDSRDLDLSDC
- Experiment description: Effect on [35S]GTP-gamma-S binding to human CB2 receptor
- Format: functional
Recorded metric: Emax (%)
State the answer as a number, implicitly in %.

Examples from the recorded data:
> print(dat)
                                   molecule  unit.descriptor  measured.value
1  CCCCCn1cc(C(=O)NC2C3CC4CC(C3)CC2C4)c(=O)c2ccccc21 (centres undefined)                %             126
2  CCCCCn1cc(C(=O)N[C@H](C)c2ccccc2)c(=O)c2ccccc21                %             129
3  CCCCCCC(C)(C)c1ccc([C@@H]2C[C@H](O)CC[C@H]2CCCO)c(O)c1                %             146
4  CCCCCn1cc(C(=O)NC2CCCc3ccccc32)c(=O)c2ccccc21 (racemic)                %             124
5  CCCCCCC(C)(C)c1cc(O)c2c(c1)OC(C)(C)[C@@H]1CC=C(CO)C[C@@H]21                %             135

Ask | I am curious: what Emax value has been reported for Cc1c(C(=O)c2cccc3ccccc23)c2cccc3c2n1[C@H](CN1CCOCC1)CO3 ?
Reply | 126

Ask | I am curious: what Emax value has been reported for Cc1ccc(Cn2nc(C(=O)NC3C4(C)CCC(C4)C3(C)C)cc2-c2ccc(Cl)c(C)c2)cc1 (centres undefined) ?
Reply | 21.6

Ask | I am curious: what Emax value has been reported for CCCC(C)(C)c1ccc2c(c1)OC(C)(C)[C@@H]1CC=C(C)C[C@@H]21 ?
Reply | 149

Ask | I am curious: what Emax value has been reported for CCCCCn1cc(C(=O)NC23CC4CC(C)(CC(C)(C4)C2)C3)c(=O)c2ccccc21 ?
Reply | 124

* * *

Ki data for Cannabinoid receptor 2 (Homo sapiens, UniProt P34972) follow.
State the answer as a number, implicitly in µM.

Examples from the recorded data:
> print(dat)
                                   compound  measured.value
1  CCCCCn1cc(C(=O)NCCc2ccccc2)c(=O)c2ccccc21           0.201
2  CCCCCn1cc(C(=O)N[C@H](C)c2ccccc2)c(=O)c2ccccc21          0.0371
3  CCCCCn1cc(C(=O)Nc2cccc3ccccc23)c(=O)c2ccccc21           0.371
4  CCCCCn1cc(C(=O)NC(C)c2cccc3ccccc23)c(=O)c2ccccc21 (racemic)           0.174

Shifting focus to the compound that follows.
Ask | Give the reported Ki for CCCCCn1cc(C(=O)NCCc2ccc3c(c2)OCO3)c(=O)c2ccccc21 (system: Cannabinoid receptor 2 (Homo sapiens, UniProt P34972)).
Reply | 0.426
